Test: Effect of hemodialysis on plasma vasopressin during constant vasopressin infusion (Example 3, Table 1)
Type: in vivo, human
Details: human, plasma, iv, 0.15 mU/kg · min^−1; infusion 0.15 mU · kg^−1 · min^−1; 1 h Dialysis; mean±SE
assay metric: level at 1 h (ng/mL)
Report only the number, with the unit ng/mL understood.

Short answer for NC(=O)CC[C@@H]1NC(=O)[C@H](Cc2ccccc2)NC(=O)[C@H](Cc2ccc(O)cc2)NC(=O)[C@@H](N)CSSC[C@@H](C(=O)N2CCC[C@H]2C(=O)N[C@@H](CCCN=C(N)N)C(=O)NCC(N)=O)NC(=O)[C@H](CC(N)=O)NC1=O [AVP, 8-arginine vasopressin] : level at 1 h was 0.025

Values were extracted from patent US7183255B2.
